Test system: K-562 leukemia
METHOD: NCI tumour cell line growth inhibition, 48 h
PROPERTY MEASURED: TGI

// below: answered compounds
[[record]]
compound = "CC(C)C(=O)OCN(C)c1nc(N(C)COC(=O)C(C)C)nc(N(C)COC(=O)C(C)C)n1"
system_name = "K-562 leukemia"
observed_result = "> 100 µM"

[[record]]
compound = "O=c1cc(-c2ccc3ccccc3c2)[nH]c2ncc(Cl)cc12"
system_name = "K-562 leukemia"
observed_result = "> 100 µM"

[[record]]
compound = "O=C1CC[C@H](NC(=O)Cc2ccccc2)C(=O)N1"
system_name = "K-562 leukemia"
observed_result = "> 1250 µM"

[[record]]
compound = "CCOC(=O)C1=c2[nH]c3cccc4cccc(c43)n2C(=O)CC1"
system_name = "K-562 leukemia"
observed_result = "> 100 µM"

[[record]]
compound = "COC1=C(C)C(=O)C2=C(C1=O)[C@@H]1[C@@H]3Cc4c(OC(=O)CO)c(C)c(OC)c(O)c4[C@H](CNC(=O)C(C)=O)N3[C@@H](C#N)[C@H](C2)N1C"
system_name = "K-562 leukemia"
observed_result = "7.77 µM"


Ask | What does the data say about its TGI? Entry: CCO/C(O)=C(/C(=N)N1CCOCC1)C(=O)Nc1ccc(Cl)cc1
Reply | > 100 µM

Ask | What does the data say about its TGI? Entry: COc1cccc(C2=C(c3cn(C)c4ccc(Cl)cc34)C(=O)NC2=O)c1
Reply | > 19.8 µM

Ask | What does the data say about its TGI? Entry: CC1CC[C@@]23CCC4(C)[C@@](C=CC5[C@@]6(C)CCC(=O)C(C)(C)C6CC[C@]54C)(OC2=O)[C@@H]3[C@H]1C (stereo not given in full)
Reply | > 100 µM

Ask | What does the data say about its TGI? Entry: COc1ccc2c(c1)/C(=N/OC(C)=O)c1c-2c(Nc2cccc(/C(C)=N/OC(C)=O)c2)nc2ccccc12
Reply | > 100 µM

Ask | What does the data say about its TGI? Entry: CC[C@H](C)[C@H](NC(=O)c1ccccn1)C(=O)N(C)[C@H](C[C@@H](OC(C)=O)c1nc(C(=O)N[C@@H](Cc2ccccc2)C[C@H](C)C(=O)OC)cs1)C(C)C
Reply | > 100 µM

Ask | What does the data say about its TGI? Entry: CCc1n[nH]c(=O)n1/N=C/c1ccc(/C=N/n2c(CC)n[nH]c2=O)cc1
Reply | > 100 µM

Ask | What does the data say about its TGI? Entry: CCOC(=O)CC[C@H](NC(=O)c1[nH]cnc1/N=N/N(C)C)C(=O)OCC
Reply | > 100 µM

---

Listing of recorded TGI by entry.
Test system: NCI-H226 lung
METHOD: NCI tumour cell line growth inhibition, 48 h

[[record]]
molecule = "C[C@]12CC[C@@H]3c4ccc(O)cc4CC[C@H]3[C@@H]1CC[C@@H]2NS(=O)(=O)c1ccc(Cl)cc1"
system_name = "NCI-H226 lung"
observed_result = "21.4 µM"

[[record]]
molecule = "C=C(Cl)C(Cl)(CBr)CCCC(C)(C)Cl (centres undefined)"
system_name = "NCI-H226 lung"
observed_result = "> 100 µM"

[[record]]
molecule = "Clc1ccc(C(Cn2ccnc2)OCc2ccsc2Cl)c(Cl)c1 (centres undefined)"
system_name = "NCI-H226 lung"
observed_result = "30.7 µM"


Ask | What does the data say about its TGI? Entry: O=C(c1ccco1)c1nc2ccc(Cl)cc2[n+]([O-])c1C(F)(F)F
Reply | > 100 µM

Ask | What does the data say about its TGI? Entry: CCCCCCCCCCCCc1ccsc1-c1ccc(-c2ccc(-c3sc(-c4cc(CCCCCCCCCCCC)c(-c5ccc(-c6ccc(-c7sccc7CCCCCCCCCCCC)s6)s5)s4)cc3CCCCCCCCCCCC)s2)s1
Reply | > 100 µM

Ask | What does the data say about its TGI? Entry: O=C(/C=C/c1ccc2ccccc2c1)NCc1ccc(C(=O)NCc2ccccc2)cc1
Reply | 86.8 µM

Ask | What does the data say about its TGI? Entry: c1ccc2c(c1)c1c(n2CCOCCCN2CCCCC2)CCCC1
Reply | 32.5 µM

Ask | What does the data say about its TGI? Entry: Cn1c(=O)c2c(nc3n(Cc4ccccc4)c(=O)c(Br)cn23)n(C)c1=O
Reply | > 100 µM

Source listed as PubChem BioAssay (NCI).
